protocol-text: Mouse pharmacokinetic natural product-drug interaction study
Format: in vivo, C57BL/6 mice
experimental-setup: male, C57BL/6, mouse, plasma, po, 20 mg/kg, tmax, mice; raloxifene 20 mg/kg oral with EGCG 12.96 mg/kg; median (range)
Structures can show the parent of a compound that is named as a salt.
quantity-name: tmax (min)
Express your answer in min, writing the number without its unit.

Fill blank: measured tmax of the molecule O=C(c1ccc(OCCN2CCCCC2)cc1)c1c(-c2ccc(O)cc2)sc2cc(O)ccc12 [Raloxifene, Raloxifene hydrochloride] is ____.
30

====

protocol-text: Mouse pharmacokinetic natural product-drug interaction study
Assay type: in vivo, C57BL/6 mice
experimental-setup: mice, plasma; raloxifene 20 mg/kg oral with green tea extract 200 mg/kg (0, 4, 8 h); geometric mean (CV%)
quantity-name: Cmax (nM)
Express your answer in nM, writing the number without its unit.

Fill blank: measured Cmax of the compound O=C(c1ccc(OCCN2CCCCC2)cc1)c1c(-c2ccc(O)cc2)sc2cc(O[C@@H]3O[C@H](C(=O)O)[C@@H](O)[C@H](O)[C@H]3O)ccc12 [Raloxifene-6-glucuronide, raloxifene-6-glucuronide] is ____.
288

====

protocol-text: Mouse pharmacokinetic natural product-drug interaction study
Assay type: in vivo, C57BL/6 mice
experimental-setup: male, C57BL/6, mouse, plasma, po, 20 mg/kg, AUC0-4h, mice; raloxifene 20 mg/kg oral with EGCG 12.96 mg/kg; geometric mean (CV%)
Where a name gives a salt, the structure may show the parent alone.
quantity-name: AUC(0-t) (nM·h)
Express your answer in nM·h, writing the number without its unit.

Fill blank: measured AUC(0-t) of the molecule O=C(c1ccc(OCCN2CCCCC2)cc1)c1c(-c2ccc(O)cc2)sc2cc(O)ccc12 [Raloxifene, Raloxifene hydrochloride] is ____.
322

====

protocol-text: Mouse pharmacokinetic natural product-drug interaction study
Format: in vivo, C57BL/6 mice
experimental-setup: male, C57BL/6, mouse, plasma, po, 20 mg/kg, AUC0-4h, mice; raloxifene 20 mg/kg oral with green tea extract 200 mg/kg; geometric mean (CV%)
Structures can show the parent of a compound that is named as a salt.
quantity-name: AUC(0-t) (µM·h)
Express your answer in µM·h, writing the number without its unit.

Fill blank: measured AUC(0-t) of the compound O=C(c1ccc(OCCN2CCCCC2)cc1)c1c(-c2ccc(O)cc2)sc2cc(O)ccc12 [Raloxifene, Raloxifene hydrochloride] is ____.
0.2

====

protocol-text: Mouse pharmacokinetic natural product-drug interaction study
Assay type: in vivo, C57BL/6 mice
experimental-setup: male, C57BL/6, mouse, plasma, po, 20 mg/kg, tmax, mice; raloxifene 20 mg/kg oral with green tea extract 200 mg/kg; median (range)
Counter-ions that a name gives are not always drawn.
quantity-name: tmax

Fill blank: measured tmax of the compound O=C(c1ccc(OCCN2CCCCC2)cc1)c1c(-c2ccc(O)cc2)sc2cc(O)ccc12 [Raloxifene, Raloxifene hydrochloride] is ____.
4 h

====

protocol-text: Mouse pharmacokinetic natural product-drug interaction study
Format: in vivo, C57BL/6 mice
experimental-setup: male, C57BL/6, mouse, plasma, po, 20 mg/kg, AUC0-24h, mice; raloxifene 20 mg/kg oral with green tea extract 200 mg/kg; geometric mean (CV%)
Structures can show the parent of a compound that is named as a salt.
quantity-name: AUC(0-t) (µM·h)
Express your answer in µM·h, writing the number without its unit.

Fill blank: measured AUC(0-t) of the compound O=C(c1ccc(OCCN2CCCCC2)cc1)c1c(-c2ccc(O)cc2)sc2cc(O)ccc12 [Raloxifene, Raloxifene hydrochloride] is ____.
0.669

====

protocol-text: Mouse pharmacokinetic natural product-drug interaction study
Format: in vivo, C57BL/6 mice
experimental-setup: male, C57BL/6, mouse, plasma, po, 20 mg/kg, Cmax, mice; raloxifene 20 mg/kg oral with green tea extract 200 mg/kg (0, 4, 8 h); geometric mean (CV%)
Where a name gives a salt, the structure may show the parent alone.
quantity-name: Cmax (nM)
Express your answer in nM, writing the number without its unit.

Fill blank: measured Cmax of the compound O=C(c1ccc(OCCN2CCCCC2)cc1)c1c(-c2ccc(O)cc2)sc2cc(O)ccc12 [Raloxifene, Raloxifene hydrochloride] is ____.
79

====

protocol-text: Mouse pharmacokinetic natural product-drug interaction study
Assay type: in vivo, C57BL/6 mice
experimental-setup: male, C57BL/6, mouse, plasma, po, 20 mg/kg, AUC0-24h, mice; raloxifene 20 mg/kg oral with EGCG 12.96 mg/kg; geometric mean (CV%)
Where a name gives a salt, the structure may show the parent alone.
quantity-name: AUC(0-t) (µM·h)
Express your answer in µM·h, writing the number without its unit.

Fill blank: measured AUC(0-t) of the compound O=C(c1ccc(OCCN2CCCCC2)cc1)c1c(-c2ccc(O)cc2)sc2cc(O)ccc12 [Raloxifene, Raloxifene hydrochloride] is ____.
0.867
